Experiment: Rat pharmacokinetic study
Assay type: in vivo
Conditions: intravenous (bolus), 1 mg/kg, male Wistar rats, plasma
value.kind: AUC(0-t) (ng·h/mL)

molecule	result.number
COC(=O)NCCCN1C2CCC1CC(NC(=O)c1cc3cccn3n(C(C)C)c1=O)C2.O=C(O)C(O)C(O)C(=O)O (stereo not shown)	119
CC(C)n1c(=O)c(C(=O)NC2CC3CCC(C2)N3CCNS(C)(=O)=O)cc2cccn21.O=C(O)C(O)C(O)C(=O)O (stereo not shown)	146
CC(C)n1c(=O)c(C(=O)NC2CC3CCC(C2)N3C[C@H](O)CN(C)S(C)(=O)=O)cc2cccn21.O=C(O)C(O)C(O)C(=O)O (single isomer, unassigned)	124
CC(C)n1c(=O)c(C(=O)NC2CC3CCC(C2)N3C[C@@H](O)CN(C)S(C)(=O)=O)cc2cccn21.O=C(O)C(O)C(O)C(=O)O (single isomer, unassigned)	65

###

Experiment: Rat pharmacokinetic study
Format: in vivo
Details: intravenous (bolus), 1 mg/kg, male Wistar rats, plasma
value.kind: half-life

molecule	value.kind	result
CC(C)n1c(=O)c(C(=O)NC2CC3CCC(C2)N3C[C@H](O)CN(C)S(C)(=O)=O)cc2cccn21.O=C(O)C(O)C(O)C(=O)O (single isomer, unassigned)	half-life	1.7 h
CC(C)n1c(=O)c(C(=O)NC2CC3CCC(C2)N3CCNS(C)(=O)=O)cc2cccn21.O=C(O)C(O)C(O)C(=O)O (stereo not shown)	half-life	1.3 h
COC(=O)NCCCN1C2CCC1CC(NC(=O)c1cc3cccn3n(C(C)C)c1=O)C2.O=C(O)C(O)C(O)C(=O)O (stereo not shown)	half-life	1.3 h
CC(C)n1c(=O)c(C(=O)NC2CC3CCC(C2)N3C[C@@H](O)CN(C)S(C)(=O)=O)cc2cccn21.O=C(O)C(O)C(O)C(=O)O (single isomer, unassigned)	half-life	1.5 h

###

This section presents molecules with their documented Cmax values.
Test: Rat pharmacokinetic study
Type: in vivo
Settings: oral (gavage), 3 mg/kg, male Wistar rats, plasma
value.kind: Cmax (ng/mL)

molecule	result.number
CC(C)n1c(=O)c(C(=O)NC2CC3CCC(C2)N3CCNS(C)(=O)=O)cc2cccn21.O=C(O)C(O)C(O)C(=O)O (stereo not shown)	83
COC(=O)NCCCN1C2CCC1CC(NC(=O)c1cc3cccn3n(C(C)C)c1=O)C2.O=C(O)C(O)C(O)C(=O)O (stereo not shown)	174
CC(C)n1c(=O)c(C(=O)NC2CC3CCC(C2)N3C[C@@H](O)CN(C)S(C)(=O)=O)cc2cccn21.O=C(O)C(O)C(O)C(=O)O (single isomer, unassigned)	51
CC(C)n1c(=O)c(C(=O)NC2CC3CCC(C2)N3C[C@H](O)CN(C)S(C)(=O)=O)cc2cccn21.O=C(O)C(O)C(O)C(=O)O (single isomer, unassigned)	11

###

Experiment: Rat pharmacokinetic study
Assay type: in vivo
Conditions: oral (gavage), 3 mg/kg, male Wistar rats, plasma
Experimental: Male Wistar rats (250±50 g) were used as experimental animals. Animals were housed individually in polypropylene cages. Two days prior to study, rats were anesthetized with isoflurane for surgical placement of jugular vein catheter. […] After dosing of animal, each time point a 200 μL of blood sample was collected through jugular vein and replenished with an equivalent volume of normal saline. […] The test compounds were quantified in the calibration range around 1-2000 ng/mL in plasma. […]
This section presents molecules with their documented AUC(0-t) values.

molecule	AUC(0-t)
CC(C)n1c(=O)c(C(=O)NC2CC3CCC(C2)N3C[C@H](O)CN(C)S(C)(=O)=O)cc2cccn21.O=C(O)C(O)C(O)C(=O)O (single isomer, unassigned)	44 ng·h/mL
CC(C)n1c(=O)c(C(=O)NC2CC3CCC(C2)N3CCNS(C)(=O)=O)cc2cccn21.O=C(O)C(O)C(O)C(=O)O (stereo not shown)	189 ng·h/mL
COC(=O)NCCCN1C2CCC1CC(NC(=O)c1cc3cccn3n(C(C)C)c1=O)C2.O=C(O)C(O)C(O)C(=O)O (stereo not shown)	274 ng·h/mL
CC(C)n1c(=O)c(C(=O)NC2CC3CCC(C2)N3C[C@@H](O)CN(C)S(C)(=O)=O)cc2cccn21.O=C(O)C(O)C(O)C(=O)O (single isomer, unassigned)	160 ng·h/mL
